Parameter MIC: see the listing below.
# System: S. Pyogenes Cook
The reply should contain only the number, in µg/mL.

CCC(=O)O[C@@H]1CC(=O)O[C@H](C)C/C=C/C=C/[C@H](O)[C@H](C)C[C@H](CC=O)[C@H](O[C@@H]2O[C@H](C)[C@@H](O[C@H]3C[C@@](C)(O)[C@@H](OC(=O)CC)[C@H](C)O3)[C@H](N(C)C)[C@H]2O)[C@H]1OC [MDM, midecamycin A1, reference compound] :: 0.2

**Q:** Requested field: MIC. Item: CCCO[C@]1(C)C[C@H](O[C@H]2[C@H](N(C)C)[C@@H](O)[C@H](O[C@H]3[C@@H](CC=O)C[C@@H](C)[C@@H](O)/C=C/C=C/C[C@@H](C)OC(=O)C[C@@H](O)[C@@H]3OC)O[C@@H]2C)O[C@@H](C)[C@@H]1OCCC(C)C
**A:** 0.1
